- Test system: HL-60 cells (human promyelocytic leokemia cells)
- Protocol text: Cancer cell growth suppressing action using HL-60 cells (Cell counting kit-8)
- Type: cell-based
- Condition parameters: 24 hours, 6.3-100 μM, viable cells vs DMSO only, read-out: Cell growth suppressing ability to HL-60 (IC50)
pIC50: −log10 of the molar value.
Readings of pIC50 for the listed molecules
Result type: pIC50

* COc1cc(/C=C/C(=O)O)ccc1O [Ferulic acid, ferulic acid, reference compound] | < 4.00
* O=C(O)/C=C/c1ccc(O)c(O)c1 [Coffeic acid, caffeic acid, reference compound] | < 4.00
* O=C(O)/C=C/c1ccc(O)cc1 [p-coumaric acid, reference compound] | < 4.00
